# protocol text: Toxicity liver stage against HepG2, at 10uM
# Type: cell-based
# Design: test concentration 10 uM, cell line HepG2-A16-CD81EGFP
# experimental setup: human, HepG2-A16-CD81EGFP cells; read-out: INHIBITION
parameter measured: cytotoxicity at 10 µM (%)
Your answer should be a plain number; it is taken to be in %.

Solved entries (count: 6):
| compound | display unit | cytotoxicity at 10 µM |
| --- | --- | --- |
| COc1ncccc1C(=O)N1CC(c2nc(-c3ccco3)no2)C1 | % | 4.91 |
| CC(C)c1n[nH]c(C2CN(C(=O)c3cnccn3)CCO2)n1 (centres undefined) | % | 2.16 |
| Cc1ccc(C(=O)N2CCN(Cc3ccsc3)CC2)n1C | % | 0.914 |
| Cc1cnn(CC2CCCN2Cc2cc(=O)n3cccc(C)c3n2)c1 (centres undefined) | % | 0.442 |
| CCCc1cc(C(=O)N2CC(c3ccncc3)C2)ccn1 | % | 2.36 |
| CSCc1nc(C(C)(C)NC(=O)OC(C)(C)C)no1 | % | -8.44 |

Query: Entry under review: CC(CCc1cccn1C)NC(=O)Nc1cccn(C)c1=O (centres undefined) . Reported cytotoxicity at 10 µM?
Response: 3.14

Query: Looking for the measured cytotoxicity at 10 µM of O=C(Cc1csc(-c2ncccn2)n1)N1CCN2CCCCC2C1 (centres undefined) , can you help?
Response: 7.94

Query: Returns the measured cytotoxicity at 10 µM for the input compound. Input: Cc1ccc(C(C)NC(=O)N2CCCN(CC(F)F)CC2)s1 (centres undefined)
Response: 3.44

Query: Entry `CC(C)CN(Cc1nc2c(cnn2C)c(=O)[nH]1)CC(C)C` has what cytotoxicity at 10 µM?
Response: -5.36

Query: Item `Cc1cccc(SC2CCN(C(=O)CCCS(N)(=O)=O)CC2)c1` has what recorded cytotoxicity at 10 µM?
Response: -6.01

Query: Please look up its cytotoxicity at 10 µM: `CN1C[C@H](O)C[C@H]1c1nc(-c2ccc(OC(F)(F)F)cc2)no1`
Response: -12.2

Query: For `Cn1cc(CCNC(=O)NC2CCN(Cc3ccccn3)CC2)cn1` , what is its reported cytotoxicity at 10 µM?
Response: -16.4

Query: Any idea what cytotoxicity at 10 µM was measured for `Cc1ccc(S(N)(=O)=O)cc1C(=O)NC1CCN(C2CC2)CC1` ?
Response: 13.3

Query: Param item = CC(=O)NCC(=O)N1Cc2cc(C#N)ccc2C1c1cnco1 (centres undefined) ; retrieve measured cytotoxicity at 10 µM.
Response: 1.06
